biological target: CYP3A4 (Homo sapiens, UniProt P08684); construct: Using human liver microsomes pooled as an enzyme source; from tissue; host or cells: pooled human liver microsomes; test: Cytochrome P450 inhibitory action, CYP3A4 in human liver microsomes; assay type: in vitro ADME; details: substrate testosterone
Sequence (P08684 whole entry): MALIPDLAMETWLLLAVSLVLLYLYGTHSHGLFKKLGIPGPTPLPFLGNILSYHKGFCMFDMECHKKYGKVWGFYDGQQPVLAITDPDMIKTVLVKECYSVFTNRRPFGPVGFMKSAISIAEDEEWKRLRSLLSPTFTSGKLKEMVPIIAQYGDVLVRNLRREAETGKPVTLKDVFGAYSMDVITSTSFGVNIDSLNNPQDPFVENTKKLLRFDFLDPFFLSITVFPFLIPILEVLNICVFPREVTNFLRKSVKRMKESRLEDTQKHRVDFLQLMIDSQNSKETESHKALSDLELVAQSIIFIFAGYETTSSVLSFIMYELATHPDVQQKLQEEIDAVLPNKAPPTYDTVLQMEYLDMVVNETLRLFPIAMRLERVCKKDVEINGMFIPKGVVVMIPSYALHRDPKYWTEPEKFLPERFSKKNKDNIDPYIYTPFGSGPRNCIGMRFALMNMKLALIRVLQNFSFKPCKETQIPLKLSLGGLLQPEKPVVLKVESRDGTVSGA

>  <mol-smiles>
CC(=O)N1CCN(c2ccc(N)c(-n3ccnc3)c2)CC1

>  <IC50>
> 10 µM

$$$$

====

target: CYP3A4 (Homo sapiens, UniProt P08684); construct: Using human liver microsomes pooled as an enzyme source; from tissue; host or cells: pooled human liver microsomes; test: Cytochrome P450 inhibitory action, CYP3A4 in human liver microsomes; assay type: in vitro ADME; details: pooled human liver microsomes, probe midazolam (5 μM), substrate midazolam, 10 μM, read-out: inhibition rate in the shown concentration

>  <mol-smiles>
CC(=O)N1CCN(c2ccc(N)c(-n3ccnc3)c2)CC1

>  <output-unit>
%

>  <inhibition at 10 min, 10 µM>
28

$$$$

====

Target: CYP2D6 (Homo sapiens)
Construct: Using human liver microsomes pooled as an enzyme source; from tissue; host or cells: pooled human liver microsomes
Sequence (P10635 whole entry): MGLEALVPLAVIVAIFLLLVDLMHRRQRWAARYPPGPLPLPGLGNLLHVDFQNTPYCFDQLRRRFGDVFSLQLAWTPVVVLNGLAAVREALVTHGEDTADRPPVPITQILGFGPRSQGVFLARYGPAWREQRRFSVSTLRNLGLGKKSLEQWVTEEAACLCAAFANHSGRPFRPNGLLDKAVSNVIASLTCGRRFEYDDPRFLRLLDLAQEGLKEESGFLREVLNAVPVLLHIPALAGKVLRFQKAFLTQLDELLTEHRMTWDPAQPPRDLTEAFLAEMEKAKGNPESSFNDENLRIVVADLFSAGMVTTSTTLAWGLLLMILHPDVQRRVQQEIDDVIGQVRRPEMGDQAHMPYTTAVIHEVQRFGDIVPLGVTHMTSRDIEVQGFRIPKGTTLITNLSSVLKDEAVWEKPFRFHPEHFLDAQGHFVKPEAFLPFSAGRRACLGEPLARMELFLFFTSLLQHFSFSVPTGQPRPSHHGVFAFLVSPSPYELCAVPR
Assay: Cytochrome P450 inhibitory action, CYP2D6 in human liver microsomes
Assay type: in vitro ADME
Conditions: pooled human liver microsomes, probe dextromethorphan (printed 5 M), substrate dextromethorphan, 10 μM, read-out: inhibition rate in the shown concentration
Excerpt: An inhibitory action of the compound of the present invention with respect to CYP2D6 (dextromethorphan was used as a substrate) and CYP3A4 (midazolam and testosterone were used as substrates) which are isozymes of cytochrome P450 (hereinafter, referred to as “CYP”) serving as a major drug-metabolizing enzyme was examined using human liver microsomes. […]
quantity-name: inhibition at 10 min, 10 µM (%)

>  <compound>
CC(=O)N1CCN(c2ccc(N)c(-n3ccnc3)c2)CC1 [Compound 1-1]

>  <value-measured>
36

$$$$

====

target: CYP2D6 (Homo sapiens)
pIC50: −log10 of the molar value.
quantity-name: pIC50

>  <compound>
CC(=O)N1CCN(c2ccc(N)c(-n3ccnc3)c2)CC1 [Compound 1-1]

>  <value-measured>
< 5.00

$$$$

====

Target: rabbit reticulocyte-derived 15-lipoxygenase (Oryctolagus cuniculus, UniProt P12530)
Sequence (P12530 1-663): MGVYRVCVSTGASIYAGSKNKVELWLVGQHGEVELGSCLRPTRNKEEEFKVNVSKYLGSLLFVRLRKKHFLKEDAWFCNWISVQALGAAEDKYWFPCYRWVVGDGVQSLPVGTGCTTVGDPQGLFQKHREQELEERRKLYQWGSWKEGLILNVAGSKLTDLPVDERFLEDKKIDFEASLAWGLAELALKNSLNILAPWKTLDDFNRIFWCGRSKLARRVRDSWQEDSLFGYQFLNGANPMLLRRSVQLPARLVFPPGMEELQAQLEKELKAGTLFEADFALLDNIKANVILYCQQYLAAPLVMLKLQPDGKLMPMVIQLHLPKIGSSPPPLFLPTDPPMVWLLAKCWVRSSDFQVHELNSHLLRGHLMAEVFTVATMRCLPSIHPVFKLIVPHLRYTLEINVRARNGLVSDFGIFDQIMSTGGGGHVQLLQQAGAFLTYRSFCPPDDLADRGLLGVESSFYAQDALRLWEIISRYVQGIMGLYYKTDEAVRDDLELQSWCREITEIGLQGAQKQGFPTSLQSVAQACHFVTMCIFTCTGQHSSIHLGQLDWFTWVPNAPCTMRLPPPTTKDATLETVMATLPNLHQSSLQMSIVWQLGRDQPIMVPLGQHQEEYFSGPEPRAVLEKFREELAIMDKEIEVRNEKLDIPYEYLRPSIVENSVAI
quantity-name: IC50

>  <compound>
CC(=O)N1CCN(c2ccc(N)c(-n3ccnc3)c2)CC1 [Compound 1-1]

>  <quantity-name>
IC50

>  <value-measured>
~3 µM

$$$$
